Catalogue of EC50 readings, one per entry.
Test system: HIV-IIIb (wildtype)
Assay: Antiviral assay in MT4 cells, HIV-IIIb wildtype
Assay type: cell-based, HIV-1
Settings: Human immunodeficiency virus 1, IIIB, MT4, 120 h, read-out: WT EC50

| compound | EC50 (nM) |
| --- | --- |
| CC(=O)N1CC[C@H](N2CCC(c3nn(C)c4ccc(-c5nc6cc(C)c([C@H](OC(C)(C)C)C(=O)O)c(-c7ccc(Cl)cc7)c6s5)nc34)CC2)C1 | 2 |
| Cc1cc2nc(-c3ccc4c(n3)c(C3CCN(CCN(C)C)CC3)nn4C)sc2c(-c2ccc(Cl)cc2)c1[C@H](OC(C)(C)C)C(=O)O | 2 |
| Cc1cc2nc(-c3ccc4c(c3)c(C3CCN(C5COC5)CC3)nn4CC(F)(F)F)sc2c(-c2ccc(Cl)cc2)c1[C@H](OC(C)(C)C)C(=O)O | 3830 |
| Cc1cc2nc(-c3ccc4c(c3)c(N3CC5(CCCCC5)C3)nn4C)sc2c(-c2ccc(Cl)cc2)c1[C@H](OC(C)(C)C)C(=O)O | 150 |
| Cc1cc2nc(-c3ccc4c(n3)c(N3CCN(C)CC3)nn4C)sc2c(-c2ccc(Cl)cc2)c1[C@H](OC(C)(C)C)C(=O)O | 4 |
| COCC(C)N1CC(c2nn(C)c3ccc(-c4nc5cc(C)c([C@H](OC(C)(C)C)C(=O)O)c(-c6ccc(Cl)cc6)c5s4)cc23)C1 (stereo partly drawn) | 4 |
